All values here come from patent US20100093763A1.

# Tested System: human adenosine A1 receptor (Homo sapiens)
# Sequence (P30542 1-326): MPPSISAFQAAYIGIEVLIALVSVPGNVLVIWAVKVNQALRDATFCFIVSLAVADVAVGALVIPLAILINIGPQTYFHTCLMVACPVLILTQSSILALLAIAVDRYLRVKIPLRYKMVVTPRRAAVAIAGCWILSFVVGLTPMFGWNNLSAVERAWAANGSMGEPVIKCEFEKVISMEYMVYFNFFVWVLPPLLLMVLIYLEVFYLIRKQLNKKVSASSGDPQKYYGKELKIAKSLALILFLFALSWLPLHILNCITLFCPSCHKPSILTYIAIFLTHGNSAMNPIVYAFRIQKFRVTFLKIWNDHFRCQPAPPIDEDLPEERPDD
# Test: Adenosine A1 Receptor Functional Assay (A1GAL2)
# Assay Conditions: CHO-K1 cells overexpressing human A1 receptor, cAMP inducible beta-galactosidase reporter, 4 nM r-PIA/1 uM Forskolin agonist challenge
Counter-ions that a name gives are not always drawn.
Note to self: use true only for Ki readings below 900 nM; a reading exactly at 900 nM still gets false.

Field: below-cutoff. Rule: recorded Ki strictly less than 900 nM. Subject: COc1ccccc1Cc1cc2c(N)nc(-c3cccc(C#N)c3)nc2s1 [Example 9] true

Field: below-cutoff. Rule: recorded Ki strictly less than 900 nM. Subject: N#Cc1cccc(-c2nc(N)c3cc(CCc4ccccc4)sc3n2)c1 [Example 2] false

Field: below-cutoff. Rule: recorded Ki strictly less than 900 nM. Subject: COc1cccc(-c2nc(N)c3cc(Cc4ccccc4)sc3n2)c1 [Example 13, hydrochloride] true

Field: below-cutoff. Rule: recorded Ki strictly less than 900 nM. Subject: COc1ccccc1C(=O)c1cc2c(N)nc(-c3cccc(OC(F)(F)F)c3)nc2s1 [Example 18] true

Field: below-cutoff. Rule: recorded Ki strictly less than 900 nM. Subject: Nc1nc(-c2cccc(C(F)(F)F)c2)nc2sc(Cc3ccccc3)cc12 [Example 12] false

Field: below-cutoff. Rule: recorded Ki strictly less than 900 nM. Subject: C=C(c1ccccc1)c1cc2c(N)nc(-c3cccc(C#N)c3)nc2s1 [Example 5] false

Field: below-cutoff. Rule: recorded Ki strictly less than 900 nM. Subject: N#Cc1cccc(-c2nc(N)c3cc(Cc4ccccc4OC(F)(F)F)sc3n2)c1 [Example 15] false

====

# Tested System: human adenosine A2a receptor (Homo sapiens)
# Sequence (P29274 whole entry): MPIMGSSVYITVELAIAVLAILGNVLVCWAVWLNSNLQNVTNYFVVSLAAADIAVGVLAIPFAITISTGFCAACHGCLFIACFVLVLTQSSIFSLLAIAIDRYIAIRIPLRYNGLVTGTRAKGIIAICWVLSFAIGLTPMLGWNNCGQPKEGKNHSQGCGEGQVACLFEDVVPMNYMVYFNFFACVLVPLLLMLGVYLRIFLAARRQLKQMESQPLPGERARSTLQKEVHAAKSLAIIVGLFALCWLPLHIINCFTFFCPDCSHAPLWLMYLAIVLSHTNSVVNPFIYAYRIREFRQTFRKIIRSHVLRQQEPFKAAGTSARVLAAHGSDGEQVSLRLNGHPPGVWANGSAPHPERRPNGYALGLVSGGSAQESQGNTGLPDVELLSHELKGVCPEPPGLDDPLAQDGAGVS
# Test: Adenosine A2a Receptor Functional Assay (A2AGAL2)
# Assay Conditions: CHO-K1 cells overexpressing human A2a receptor, cAMP inducible beta-galactosidase reporter, 15 nM NECA agonist challenge
Structures can show the parent of a compound that is named as a salt.
Please provide measured log10(Ki) for the entries that follow.
A value of 2 here means Ki of 100 in nM, since values are log10.

Form: molecule = COc1ccccc1Cc1cc2c(N)nc(-c3cccc(C#N)c3)nc2s1 ; log10(Ki) = 0.79

Form: molecule = COc1ccccc1C(=O)c1cc2c(N)nc(-c3cccc(F)c3)nc2s1 ; log10(Ki) = 1.90

Form: molecule = Nc1nc(-c2cccc(F)c2)nc2sc(Cc3ccccc3)cc12 ; log10(Ki) = 1.63

Form: molecule = Nc1nc(-c2cccc(F)c2)nc2sc(Cc3cc(F)cc(F)c3)cc12 ; log10(Ki) = 2.27

Form: molecule = COc1ccccc1C(=O)c1cc2c(N)nc(-c3cccc(C#N)c3)nc2s1 ; log10(Ki) = 1.36

Form: molecule = Nc1nc(-c2cccc(C(F)(F)F)c2)nc2sc(Cc3ccccc3)cc12 ; log10(Ki) = 3.01

Form: molecule = COc1cccc(-c2nc(N)c3cc(Cc4ccccc4)sc3n2)c1 [Example 13, hydrochloride] ; log10(Ki) = 2.07

Form: molecule = COc1ccccc1C(=O)c1cc2c(N)nc(-c3cccc(OC(F)(F)F)c3)nc2s1 ; log10(Ki) = 2.24

Form: molecule = N#Cc1cccc(-c2nc(N)c3cc(Cc4ccccc4)sc3n2)c1 ; log10(Ki) = 1.03

Form: molecule = N#Cc1cccc(-c2nc(N)c3cc(Cc4ccccc4OC(F)(F)F)sc3n2)c1 ; log10(Ki) = 1.59

Form: molecule = N#Cc1cccc(-c2nc(N)c3cc(CCc4ccccc4)sc3n2)c1 ; log10(Ki) = 2.90

Form: molecule = CC(c1ccccc1)c1cc2c(N)nc(-c3cccc(C#N)c3)nc2s1 (racemic) ; log10(Ki) = 2.53

Form: molecule = COc1ccccc1-c1nc(N)c2cc(Cc3ccccc3)sc2n1 ; log10(Ki) = 2.34

Form: molecule = C=C(c1ccccc1)c1cc2c(N)nc(-c3cccc(C#N)c3)nc2s1 ; log10(Ki) = 1.80

Form: molecule = COc1ccccc1Cc1cc2c(N)nc(-c3cccc(F)c3)nc2s1 ; log10(Ki) = 1.80

Form: molecule = N#Cc1cccc(-c2nc(N)c3cc(C4(c5ccccc5)CC4)sc3n2)c1 ; log10(Ki) = 2.35
